Molecular target: T1, histidine-tagged human Siglec-7 (NovoProtein) (human, UniProt Q9Y286 19-353)
T1 construct: Bought protein; also called recombinant human Siglec-7; recombinant Siglec-7; not shown: histidine tag
T1 sequence (Q9Y286 19-353 limits assumed): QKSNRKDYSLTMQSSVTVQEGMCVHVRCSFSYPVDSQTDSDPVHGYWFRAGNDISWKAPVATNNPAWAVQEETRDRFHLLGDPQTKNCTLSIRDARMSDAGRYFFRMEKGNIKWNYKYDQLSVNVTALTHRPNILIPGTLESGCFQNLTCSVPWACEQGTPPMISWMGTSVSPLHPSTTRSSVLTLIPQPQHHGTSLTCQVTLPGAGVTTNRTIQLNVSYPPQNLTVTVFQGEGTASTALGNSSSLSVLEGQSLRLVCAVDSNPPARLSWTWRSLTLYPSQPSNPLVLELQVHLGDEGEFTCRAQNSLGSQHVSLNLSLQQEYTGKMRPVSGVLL
Assay: BLI, antibody captured
Kindly state fold improvement over S7AB-H8 for each of the entries shown.
Give just the numeric value; fold need not be written.

Ask | Answer with the recorded fold improvement over S7AB-H8 of S7AB-H8.17 (antibody, V domains shown) VH: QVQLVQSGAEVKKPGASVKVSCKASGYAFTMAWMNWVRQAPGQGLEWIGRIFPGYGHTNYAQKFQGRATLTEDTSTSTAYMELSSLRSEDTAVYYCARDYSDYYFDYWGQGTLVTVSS VL: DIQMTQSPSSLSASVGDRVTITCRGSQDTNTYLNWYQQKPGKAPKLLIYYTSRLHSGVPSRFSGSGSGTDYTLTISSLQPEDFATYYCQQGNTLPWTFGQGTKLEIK only.
Reply | 1.3

Ask | Answer with the recorded fold improvement over S7AB-H8 of S7AB-H8.16 (antibody, V domains shown) VH: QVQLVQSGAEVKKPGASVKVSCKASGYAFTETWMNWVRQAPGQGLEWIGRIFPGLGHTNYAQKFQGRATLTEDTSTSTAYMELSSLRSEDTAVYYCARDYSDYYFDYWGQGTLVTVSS VL: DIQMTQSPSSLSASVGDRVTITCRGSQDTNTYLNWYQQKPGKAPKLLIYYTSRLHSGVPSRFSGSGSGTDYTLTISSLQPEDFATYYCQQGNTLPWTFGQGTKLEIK only.
Reply | 0.4

Ask | Answer with the recorded fold improvement over S7AB-H8 of S7AB-H8.43 (antibody, V domains shown, also called S7AB-H.43) VH: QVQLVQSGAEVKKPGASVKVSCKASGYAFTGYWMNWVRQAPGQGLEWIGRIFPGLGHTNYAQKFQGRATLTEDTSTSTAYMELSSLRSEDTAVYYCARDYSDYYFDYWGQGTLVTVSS VL: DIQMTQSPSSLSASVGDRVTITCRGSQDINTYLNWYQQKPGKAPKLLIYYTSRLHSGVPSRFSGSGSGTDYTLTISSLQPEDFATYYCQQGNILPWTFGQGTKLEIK only.
Reply | 4.1
